SYSTEM TESTED: human orexin-2 receptor (Homo sapiens (Human), UniProt O43614)
Sequence (O43614 whole entry): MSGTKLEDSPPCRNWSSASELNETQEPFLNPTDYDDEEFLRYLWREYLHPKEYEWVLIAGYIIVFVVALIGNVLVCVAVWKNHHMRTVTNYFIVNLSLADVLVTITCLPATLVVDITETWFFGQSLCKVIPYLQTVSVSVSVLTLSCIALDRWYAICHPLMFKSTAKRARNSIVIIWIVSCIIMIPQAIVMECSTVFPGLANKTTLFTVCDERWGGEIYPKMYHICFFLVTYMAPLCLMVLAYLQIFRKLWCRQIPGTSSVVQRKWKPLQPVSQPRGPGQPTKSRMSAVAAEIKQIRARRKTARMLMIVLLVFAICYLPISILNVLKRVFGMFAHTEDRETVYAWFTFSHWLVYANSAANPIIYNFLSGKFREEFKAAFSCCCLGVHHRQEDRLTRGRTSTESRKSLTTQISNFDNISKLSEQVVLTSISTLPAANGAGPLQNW
TEST DETAILS: FLIPR Ca2+ Flux Assay, hOX2R
Type: cell-based
MEASUREMENT PARAMETERS: CHO cells expressing human orexin-2 receptor; agonist 70 pM Ala-6,12 human orexin-A
pIC50: −log10 of the molar value.
Hi, to clarify the labels: fulfilled covers pIC50 from 7 upward, not fulfilled covers anything below 7.

- MOLECULE: "CCOc1ccccc1C(=O)N(CC)CCc1nc(C(C)(C)O)c(C)o1"
  ASSIGNED CATEGORY: "not fulfilled"

Tell me whether pIC50 is at least 7 here: CCN(CCc1nc(C(C)(O)C(C)C)c(C)o1)C(=O)c1ccccc1-n1nccn1 (stereo not drawn)
fulfilled

Tell me whether pIC50 is at least 7 here: CCN(CCc1nc(C(C)(C)O)c(C)o1)C(=O)c1ccccc1-c1nc(C)no1 [Example 10c]
not fulfilled

Tell me whether pIC50 is at least 7 here: C=CCN(CCc1nc(C(C)(C)O)c(C)o1)C(=O)c1ccccc1-n1nccn1
fulfilled

Tell me whether pIC50 is at least 7 here: CCN(CCc1nc(C(C)(C)O)c(C)o1)C(=O)c1ccc(F)cc1-n1nccn1
fulfilled

Tell me whether pIC50 is at least 7 here: CCN(CCc1nc(C(C)(C)O)c(C)o1)C(=O)c1cccnc1OCC(F)F
not fulfilled

---

SYSTEM TESTED: human orexin-2 receptor (Homo sapiens (Human))
TEST DETAILS: FLIPR Ca2+ Flux Assay, hOX2R
MEASUREMENT PARAMETERS: CHO cells expressing human orexin-2 receptor; agonist 70 pM Ala-6,12 human orexin-A
Mark each entry label 1 if its IC50 sits below 40 nM, and label 0 for all others.

- COMPOUND: "CCN(CCc1nc(C(C)(O)CC)c(C)o1)C(=O)c1ccccc1-n1nccn1 (stereo not drawn) [Example 19]"
  ASSIGNED CATEGORY: "label 1"
- COMPOUND: "CCN(CCc1nc(C(C)(C)O)c(C)o1)C(=O)c1ccccc1-n1nccn1 [Example 11]"
  ASSIGNED CATEGORY: "label 1"
- COMPOUND: "CCN(CCc1nc(C(C)(C)O)c(C)o1)C(=O)c1cccc(F)c1-n1nccn1 [Example 3]"
  ASSIGNED CATEGORY: "label 0"
- COMPOUND: "Cc1oc(CCN(C(=O)c2ccccc2-n2nccn2)C2CC2)nc1C(C)(C)O [Example 31]"
  ASSIGNED CATEGORY: "label 0"

In plain terms, does CCN(CCc1nc(C(C)(C)O)c(C)o1)C(=O)c1ccccc1-n1cccn1 [Example 17] come in under 40 nM for IC50?
label 0

In plain terms, does CCN(CCc1nc(C(C)(C)O)c(C)o1)C(=O)c1ccccc1C(=O)OC [Example 16] come in under 40 nM for IC50?
label 0

In plain terms, does COCCN(CCc1nc(C(C)(C)O)c(C)o1)C(=O)c1ccccc1-n1nccn1 [Example 29] come in under 40 nM for IC50?
label 1

In plain terms, does Cc1oc(CCN(CCCO)C(=O)c2ccccc2-n2nccn2)nc1C(C)(C)O [Example 27] come in under 40 nM for IC50?
label 0

In plain terms, does Cc1oc(CCN(C)C(=O)c2ccccc2-n2nccn2)nc1C(C)(C)O [Example 30] come in under 40 nM for IC50?
label 0

---

Would you mind telling me the reported pIC50 of each entry?
SYSTEM TESTED: human orexin-1 receptor (Homo sapiens (Human))
Sequence (O43613 whole entry): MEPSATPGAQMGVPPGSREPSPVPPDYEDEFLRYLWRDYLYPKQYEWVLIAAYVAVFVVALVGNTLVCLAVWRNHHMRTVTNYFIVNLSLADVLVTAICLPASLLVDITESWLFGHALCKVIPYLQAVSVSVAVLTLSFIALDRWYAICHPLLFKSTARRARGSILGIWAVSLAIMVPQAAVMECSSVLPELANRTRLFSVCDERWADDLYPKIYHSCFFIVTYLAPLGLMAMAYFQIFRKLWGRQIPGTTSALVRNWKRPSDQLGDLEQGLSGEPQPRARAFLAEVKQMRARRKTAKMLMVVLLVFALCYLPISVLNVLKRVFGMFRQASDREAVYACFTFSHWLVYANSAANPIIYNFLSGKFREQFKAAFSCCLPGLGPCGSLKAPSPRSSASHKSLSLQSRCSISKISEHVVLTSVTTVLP
TEST DETAILS: FLIPR Ca2+ Flux Assay, hOX1R
MEASUREMENT PARAMETERS: CHO cells expressing human orexin-1 receptor; agonist 70 pM Ala-6,12 human orexin-A
pIC50: −log10 of the molar value.

Worked set:
- COMPOUND: "CCOc1ccccc1C(=O)N(CC)CCc1nc(C(C)(C)O)c(C)o1"
  QUANTITY MEASURED: "pIC50"
  RESULT: "< 5.00"
- COMPOUND: "CCN(CCc1nc(C(C)(C)O)c(C)o1)C(=O)c1sccc1-n1nccn1 [Example 10d]"
  QUANTITY MEASURED: "pIC50"
  RESULT: "< 5.00"
- COMPOUND: "CCN(CCc1nc(C(C)(C)O)c(C)o1)C(=O)c1ccccc1-c1nc(C)no1 [Example 10c]"
  QUANTITY MEASURED: "pIC50"
  RESULT: "< 5.00"
- COMPOUND: "COCCN(CCc1nc(C(C)(C)O)c(C)o1)C(=O)c1ccccc1-n1nccn1"
  QUANTITY MEASURED: "pIC50"
  RESULT: "< 5.00"
- COMPOUND: "Cc1oc(CCN(C)C(=O)c2ccccc2-n2nccn2)nc1C(C)(C)O"
  QUANTITY MEASURED: "pIC50"
  RESULT: "< 5.00"

Please supply pIC50 for each of the following items, keeping them in order.
1. CCN(CCc1nc(C(C)(C)O)c(C)o1)C(=O)c1ccccc1C(=O)OC
2. CCN(CCc1nc(C(C)(C)O)c(C)o1)C(=O)c1ccccc1CC(F)(F)F
3. Cc1oc(CCN(C(=O)c2ccccc2-n2nccn2)C(C)C)nc1C(C)(C)O
4. CCN(CCc1nc(C(C)(C)O)c(C)o1)C(=O)c1ccccc1C1(C#N)CC1 [Example 10b]
5. CCN(CCc1nc(C(C)(C)O)c(C)o1)C(=O)c1ccccc1-n1cccn1
6. CCN(CCc1nc(C(C)(O)CC)c(C)o1)C(=O)c1ccccc1-n1nccn1 (centres unmarked)
7. CCN(CCc1nc(C(C)(C)O)c(C)o1)C(=O)c1ccccc1-n1nccn1

1. < 5.00
2. < 5.00
3. < 5.00
4. 5.75
5. < 5.00
6. 5.47
7. 5.59

Please supply pIC50 for each of the following items, keeping them in order.
1. CCN(CCc1nc(C(C)(O)C(C)C)c(C)o1)C(=O)c1ccccc1-n1nccn1 (centres unmarked)
2. CCN(CCc1nc(C(C)(C)O)c(C)o1)C(=O)c1cccc(F)c1-n1nccn1
3. Cc1oc(CCN(CC2CC2)C(=O)c2ccccc2-n2nccn2)nc1C(C)(C)O
4. CCN(CCc1nc(C(C)(C)O)c(C)o1)C(=O)c1ccsc1-n1nccn1
5. Cc1oc(CCN(CCO)C(=O)c2ccccc2-n2nccn2)nc1C(C)(C)O

[5.57, "< 5.00", 5.55, "< 5.00", "< 5.00"]

Please supply pIC50 for each of the following items, keeping them in order.
1. CCN(CCc1nc(C(C)(C)O)c(C)o1)C(=O)c1cccnc1-n1cccn1
2. Cc1oc(CCN(C(=O)c2ccccc2-n2nccn2)C2CC2)nc1C(C)(C)O

1: < 5.00; 2: 5.12

Please supply pIC50 for each of the following items, keeping them in order.
1. CCN(CCc1nc(C(C)(C)O)c(C)o1)C(=O)c1ccccc1C1(C(F)F)CC1 [Example 18b]
2. CCN(CCc1nc(C(C)(C)O)c(C)o1)C(=O)c1cccnc1OCC(F)F
3. Cc1oc(CCN(CCCO)C(=O)c2ccccc2-n2nccn2)nc1C(C)(C)O
4. CCN(CCc1nc(C(C)(C)O)c(C)o1)C(=O)c1ccccc1-c1ccccc1
5. CCN(CCc1nc(C(C)(C)O)c(C)o1)C(=O)c1ccc(F)cc1-n1nccn1
6. CCN(CCc1nc(C(C)(C)O)c(C)o1)C(=O)c1ccc(OC)cc1-n1nccn1

< 5.00
< 5.00
< 5.00
5.74
< 5.00
< 5.00

Indicate its recorded pIC50; the compound in question is CCN(CCc1nc(C(C)(C)O)c(C)o1)C(=O)c1cccnc1OCC(F)(F)F
< 5.00

---

Would you mind telling me the reported IC50 of each entry?
SYSTEM TESTED: human orexin-2 receptor (Homo sapiens (Human), UniProt O43614)
TEST DETAILS: FLIPR Ca2+ Flux Assay, hOX2R
MEASUREMENT PARAMETERS: CHO cells expressing human orexin-2 receptor; agonist 70 pM Ala-6,12 human orexin-A
Answers are plain numbers, in nM.

- COMPOUND: "COCCCN(CCc1nc(C(C)(C)O)c(C)o1)C(=O)c1ccccc1-n1nccn1 [Example 33]"
  QUANTITY MEASURED: "IC50"
  RESULT: 119
- COMPOUND: "Cc1oc(CCN(CC(F)F)C(=O)c2ccccc2-n2nccn2)nc1C(C)(C)O [Example 24]"
  QUANTITY MEASURED: "IC50"
  RESULT: 68
- COMPOUND: "CCN(CCc1nc(C(C)(C)O)c(C)o1)C(=O)c1ccccc1CC(F)(F)F [Example 14]"
  QUANTITY MEASURED: "IC50"
  RESULT: 211
- COMPOUND: "CCN(CCc1nc(C(C)(C)O)c(C)o1)C(=O)c1ccc(OC)cc1-n1nccn1 [Example 8]"
  QUANTITY MEASURED: "IC50"
  RESULT: 82
- COMPOUND: "CCN(CCc1nc(C(C)(C)O)c(C)o1)C(=O)c1cccc(C)c1-n1nccn1 [Example 2]"
  QUANTITY MEASURED: "IC50"
  RESULT: 54
- COMPOUND: "CCN(CCc1nc(C(C)(C)O)c(C)o1)C(=O)c1cccnc1OCC(F)(F)F [Example 13]"
  QUANTITY MEASURED: "IC50"
  RESULT: 98
- COMPOUND: "Cc1oc(CCN(CC2CC2)C(=O)c2ccccc2-n2nccn2)nc1C(C)(C)O [Example 23]"
  QUANTITY MEASURED: "IC50"
  RESULT: 21

Indicate its recorded IC50; the compound in question is Cc1oc(CCN(CCO)C(=O)c2ccccc2-n2nccn2)nc1C(C)(C)O [Example 28]
98

Each recorded value in this set is attributed to patent US10435398B2.
